- METHOD SUMMARY: Inhibition of bacterial NDM1 (1 to 270 residues) expressed in Escherichia coli Transetta (DE3) cells using FC-5 as substrate by fluorescence assay
- Set-up: species or system Bacteria
pIC50 vs 5: at or above is t, below is f.

| MOLECULAR STRING | CATEGORY |
| --- | --- |
| C[C@H](CS)C(=O)N[C@H](C(=O)O)c1ccc(O)cc1 | f |
| C[C@H](CS)C(=O)N[C@H](Cc1ccc(O)cc1)C(=O)O | f |
| C[C@H](CS)C(=O)N[C@@H](C(=O)O)c1ccccc1 | f |

Record `C[C@H](CS)C(=O)N[C@@H](C(=O)O)c1ccc(O)cc1` ; criterion: pIC50 no lower than 5. Met?
t

// inclusive: pIC50 at least 5? input: `C[C@H](CS)C(=O)N[C@@H](Cc1ccccc1)C(=O)O`
f

Answer whether pIC50 of `C[C@H](CS)C(=O)N[C@H](Cc1ccccc1)C(=O)O` is greater than or equal to 5.
t

Quick check, pIC50 >= 5? `C[C@H](CS)C(=O)N[C@@H](Cc1ccc(O)cc1)C(=O)O`
f

Say whether `C[C@H](CS)C(=O)N[C@@H](C(=O)O)c1ccc(F)cc1` shows pIC50 of 5 or more.
t

====

- METHOD SUMMARY: Inhibition of N-terminal his-tagged bacterial NDM1 expressed in Escherichia coli BL21(DE3) pLyS cells
- Parameters: species or system Bacteria
// IC50 lookup, one value per entry
Quick note: give the figure in µM, leave out the unit.

| MOLECULAR STRING | IC50 (µM) |
| --- | --- |
| C[C@H](CS)C(=O)N[C@H](Cc1c[nH]c2ccccc12)C(=O)O | 64.8 |

Continue with the next molecule.
Given `C[C@H](CS)C(=O)N[C@@H](Cc1c[nH]c2ccccc12)C(=O)O` , state its recorded IC50.
24.8

====

- METHOD SUMMARY: Inhibition of bacterial VIM2 (27 to 266 residues) expressed in Escherichia coli Transetta (DE3) cells using FC-5 as substrate in presence of 1 uM Zn2+ by fluorescence assay
- Design: species or system Bacteria
The entries below are paired with their reported IC50.
Write the value in nM as a bare number.

| MOLECULAR STRING | IC50 [nM] |
| --- | --- |
| C[C@H](CS)C(=O)N[C@@H](C(=O)O)c1ccc(O)cc1 | 14.8 |

Could you now consider this next molecule?
Given the entry `C[C@H](CS)C(=O)N[C@H](C(=O)O)c1ccc(O)cc1` , report its measured IC50.
72.9

====

# IC50 values compiled below
- METHOD SUMMARY: Inhibition of bacterial NDM1 (1 to 270 residues) expressed in Escherichia coli Transetta (DE3) cells using FC-5 as substrate by fluorescence assay
- Design: species or system Bacteria
Kindly provide the numeric value in µM only, without the unit symbol.

Query: IC50; subject: `C[C@H](CS)C(=O)N[C@@H](Cc1ccccc1)C(=O)O`
233

Reported IC50 for `C[C@H](CS)C(=O)N[C@H](C(=O)O)c1ccc(F)cc1` : what is it?
11.7

Which measured IC50 value corresponds to `C[C@H](CS)C(=O)N[C@@H](C(=O)O)c1ccccc1` ?
20.5

Recorded IC50 of `C[C@H](CS)C(=O)N[C@H](Cc1ccccc1)C(=O)O` , please.
7

What does the record list as IC50 for `C[C@H](CS)C(=O)N[C@@H](Cc1ccc(O)cc1)C(=O)O` ?
326

What does the data say about its IC50? Entry: `C[C@H](CS)C(=O)N[C@H](Cc1ccc(O)cc1)C(=O)O`
73.1

Please look up its IC50: `C[C@H](CS)C(=O)N[C@H](C(=O)O)c1ccccc1`
8.77

Fill in the blank: the reported IC50 of `C[C@H](CS)C(=O)N[C@@H](C(=O)O)c1ccc(F)cc1` is ____.
5.59

Return reported IC50; argument: `C[C@H](CS)C(=O)N[C@H](C(=O)O)c1ccc(O)cc1`
24

Which value of IC50 has been reported for `C[C@H](CS)C(=O)N[C@@H](C(=O)O)c1ccc(O)cc1` in the records?
3.57
